Molecular target: PLA2G7 (Mus musculus, UniProt Q60963)
Construct: Proteomes (mouse brain membrane fraction or cell lysates); from tissue; host or cells: mouse brain membrane fraction (or cell lysates, not specified)
Sequence (Q60963 22-440): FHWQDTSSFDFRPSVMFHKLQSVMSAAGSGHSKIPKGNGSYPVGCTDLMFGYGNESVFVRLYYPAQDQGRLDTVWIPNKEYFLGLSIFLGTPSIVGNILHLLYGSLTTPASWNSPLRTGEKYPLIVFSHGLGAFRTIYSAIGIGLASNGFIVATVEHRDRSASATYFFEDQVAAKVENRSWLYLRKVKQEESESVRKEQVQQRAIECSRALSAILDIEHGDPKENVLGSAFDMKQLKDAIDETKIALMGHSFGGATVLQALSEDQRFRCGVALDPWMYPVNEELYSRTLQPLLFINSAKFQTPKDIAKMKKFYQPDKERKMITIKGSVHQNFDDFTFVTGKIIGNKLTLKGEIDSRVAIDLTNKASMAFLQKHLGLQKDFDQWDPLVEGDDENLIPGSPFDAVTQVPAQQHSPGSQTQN
Assay: In vitro competitive activity-based protein profiling (gel-based, FP-Rh or HT-01 probe)
Format: biochemical
Settings: 1 μM inhibitor; read-out: % Inhibition at 1 μM, D = PLA2G7
property.measured: inhibition at 1 µM

CC(=O)N1CCN(C(=O)n2cc(Cl)cn2)CC1 = < 25%
N#Cc1cnn(C(=O)N2CCN(Cc3ccccc3)CC2)c1 = > 75%
N#Cc1cnn(C(=O)N2CCN(Cc3ccc(-c4ccccc4)cc3Cl)CC2)c1 = > 75%
N#Cc1cnn(C(=O)N2CCCCC2)c1 = > 75%
O=C(N1CCN(c2ccccc2N2CCOCC2)CC1)n1cc(C(F)(F)F)cn1 = > 75%
Cc1cnn(C(=O)N(C)CCN(C)C(=O)OC(C)(C)C)c1 = < 25%
Cc1cnn(C(=O)N2CCCCC2)c1 = < 25%
Cc1cnn(C(=O)N2CCN(C(=O)OC(C)(C)C)CC2)c1 = > 75%
CC(=O)N1CCCN(C(=O)n2cc(C(F)(F)F)cn2)CC1 = 25 to 75%
O=C(N1CCN(Cc2ccc(CN3CCOCC3)cc2)CC1)n1cc(Cl)cn1 = > 75%

---

inhibition at 1 µM values for the compounds below.
molecular target: ABHD6 (Mus musculus, UniProt Q8R2Y0); construct: Proteomes (mouse brain membrane fraction or cell lysates); from tissue; host or cells: mouse brain membrane fraction (or cell lysates, not specified); assay: In vitro competitive activity-based protein profiling (gel-based, FP-Rh or HT-01 probe); type: biochemical; conditions: 1 μM inhibitor; read-out: % Inhibition at 1 μM, C = ABHD6
Sequence (Q8R2Y0 whole entry): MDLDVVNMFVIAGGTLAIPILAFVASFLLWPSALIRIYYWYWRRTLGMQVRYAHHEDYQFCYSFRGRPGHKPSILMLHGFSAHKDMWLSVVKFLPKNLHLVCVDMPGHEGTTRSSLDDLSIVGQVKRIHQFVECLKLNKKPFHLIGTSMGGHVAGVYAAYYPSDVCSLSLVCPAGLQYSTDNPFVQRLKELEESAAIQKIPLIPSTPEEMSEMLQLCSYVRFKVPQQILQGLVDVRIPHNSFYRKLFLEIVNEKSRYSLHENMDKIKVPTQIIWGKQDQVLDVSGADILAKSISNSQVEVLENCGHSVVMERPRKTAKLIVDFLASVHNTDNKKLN
property.measured: inhibition at 1 µM

Cc1cnn(C(=O)N2CCN(S(C)(=O)=O)CC2)c1 = < 25%
O=C(N1CCN(Cc2c(N3CCCC3)cccc2C(F)(F)F)CC1)n1cc(F)cn1 = > 75%
O=C(c1ccccc1)N1CCN(C(=O)n2cc(Cl)cn2)CC1 = < 25%
CS(=O)(=O)N1CCCN(C(=O)n2cc(C#N)cn2)CC1 = < 25%
CN1CCCN(C(=O)n2cc(C(F)(F)F)cn2)CC1 = < 25%

---

Target: PLA2G7 (Mus musculus, UniProt Q60963)
Construct: Proteomes (mouse brain membrane fraction or cell lysates); from tissue; host or cells: mouse brain membrane fraction (or cell lysates, not specified)
Sequence (Q60963 22-440): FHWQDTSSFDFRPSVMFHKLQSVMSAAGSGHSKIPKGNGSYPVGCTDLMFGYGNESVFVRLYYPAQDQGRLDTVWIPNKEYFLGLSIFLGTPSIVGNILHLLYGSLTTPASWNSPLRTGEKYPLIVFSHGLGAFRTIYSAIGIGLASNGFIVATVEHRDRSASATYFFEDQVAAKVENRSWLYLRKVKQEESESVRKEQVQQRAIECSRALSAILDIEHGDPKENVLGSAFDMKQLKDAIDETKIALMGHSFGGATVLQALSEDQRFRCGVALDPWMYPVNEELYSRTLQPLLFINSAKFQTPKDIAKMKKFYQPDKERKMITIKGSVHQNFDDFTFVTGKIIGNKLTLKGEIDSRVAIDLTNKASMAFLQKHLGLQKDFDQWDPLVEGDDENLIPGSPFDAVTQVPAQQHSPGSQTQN
Assay: In vitro competitive activity-based protein profiling (gel-based, FP-Rh or HT-01 probe)
Format: biochemical
Details: 10 μM inhibitor; read-out: % Inhibition at 10 μM, D = PLA2G7
inhibition at 10 µM values for the compounds below.
property.measured: inhibition at 10 µM

N#Cc1cnn(C(=O)N2CCN(Cc3ccccc3)CC2)c1 = > 75%
COc1cc(-c2ccccc2)ccc1CN1CCN(C(=O)n2cc(C(F)(F)F)cn2)CC1 = > 75%
N#Cc1cnn(C(=O)N2CCCN(Cc3ccccc3)CC2)c1 = > 75%
CN(CCN(C)C(=O)n1cccn1)C(=O)OC(C)(C)C = < 25%
O=C(c1cnn(C(=O)N2CCN(C(c3ccc(Cl)cc3)c3ccc(Cl)cc3)CC2)c1)N1CCOCC1 = > 75%

---

biological target: PLA2G7 (Mus musculus, UniProt Q60963); construct: Proteomes (mouse brain membrane fraction or cell lysates); from tissue; host or cells: mouse brain membrane fraction (or cell lysates, not specified); experiment: In vitro competitive activity-based protein profiling (gel-based, FP-Rh or HT-01 probe); type: biochemical; conditions: 10 μM inhibitor; read-out: % Inhibition at 10 μM, D = PLA2G7
inhibition at 10 µM values for the compounds below.
property.measured: inhibition at 10 µM

O=C(c1ccccc1)N1CCN(C(=O)n2cc(Cl)cn2)CC1 = > 75%
O=C(N1CCN(Cc2ccc(Cl)c(Cl)c2)CC1)n1cc(Cl)cn1 = > 75%
CC(C)(C)OC(=O)N1CCN(C(=O)n2cc(C#N)cn2)CC1 = > 75%
Cc1cnn(C(=O)N(C)CCN(C)Cc2ccccc2)c1 = < 25%
O=C(N1CCN(Cc2ccc(-c3ccccc3)cc2Cl)CC1)n1cc(Cl)cn1 = > 75%

---

biological target: FAAH (Mus musculus, UniProt O08914); construct: Proteomes (mouse brain membrane fraction or cell lysates); from tissue; host or cells: mouse brain membrane fraction (or cell lysates, not specified); experiment: In vitro competitive activity-based protein profiling (gel-based, FP-Rh or HT-01 probe); type: biochemical; settings: 1 μM inhibitor; gel-based competitive ABPP; read-out: % Inhibition at 1 μM, B = FAAH
Sequence (O08914 whole entry): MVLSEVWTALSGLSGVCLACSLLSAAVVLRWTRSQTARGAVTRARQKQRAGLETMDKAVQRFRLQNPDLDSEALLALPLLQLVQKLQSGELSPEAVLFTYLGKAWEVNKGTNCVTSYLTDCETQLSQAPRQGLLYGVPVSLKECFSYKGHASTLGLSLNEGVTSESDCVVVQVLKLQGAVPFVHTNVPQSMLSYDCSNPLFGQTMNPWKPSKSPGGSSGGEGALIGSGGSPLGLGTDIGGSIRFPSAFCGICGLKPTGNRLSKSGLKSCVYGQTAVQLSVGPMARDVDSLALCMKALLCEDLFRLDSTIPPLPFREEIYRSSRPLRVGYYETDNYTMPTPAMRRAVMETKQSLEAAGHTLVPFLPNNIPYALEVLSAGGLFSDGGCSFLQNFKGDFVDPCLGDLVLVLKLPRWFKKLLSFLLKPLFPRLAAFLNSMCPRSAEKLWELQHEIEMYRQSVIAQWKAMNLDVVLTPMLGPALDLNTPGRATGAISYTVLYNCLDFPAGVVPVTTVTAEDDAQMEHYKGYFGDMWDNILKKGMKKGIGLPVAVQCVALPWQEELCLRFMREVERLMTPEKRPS
property.measured: inhibition at 1 µM

O=C(N1CCN(Cc2ccccc2Cl)CC1)n1cc(C(F)(F)F)cn1 [Example 275] = > 75%
O=C(c1cnn(C(=O)N2CCN(Cc3ccc(-c4ccccc4)cc3Cl)CC2)c1)N1CCCC1 [Example 289] = > 75%
CCN(Cc1cccc(N2CCOCC2)c1)C(=O)n1cc(Cl)cn1 [Example 266] = > 75%
O=C(N1CCN(Cc2cccc(OCc3ccccc3)c2)CC1)n1cccn1 [Example 296] = > 75%
CCN(Cc1ccc(N2CCOCC2)cc1)C(=O)n1cc(Cl)cn1 [Example 267] = 25 to 75%
N#Cc1cnn(C(=O)N2CCCN(Cc3cccc(Oc4ccccc4)c3)CC2)c1 [Example 299] = > 75%
Cc1cnn(C(=O)N2CCCN(Cc3cccc(Oc4ccccc4)c3)CC2)c1 [Example 298] = < 25%
CCN(Cc1ccc(N2CCOCC2)cc1)C(=O)n1cc(C(F)(F)F)cn1 [Example 264] = > 75%
Cc1cnn(C(=O)NCc2ccc(OCc3ccccc3)cc2)c1 [Example 293] = < 25%
CCN(Cc1ccc(C)cc1)C(=O)n1cc(C#N)cn1 [Example 255] = > 75%
O=C(N1CCN(Cc2cccc(Cl)c2)CC1)n1cc(C(F)(F)F)cn1 [Example 268] = > 75%
O=C(N1CCN(Cc2cccc(N3CCOCC3)c2)CC1)n1cc(C(F)(F)F)cn1 [Example 274] = > 75%
CCN(Cc1cccc(OC)c1)C(=O)n1cc(C#N)cn1 [Example 249] = > 75%
O=C(N1CCN(Cc2ccccc2N2CCCC2)CC1)n1cc(C(F)(F)F)cn1 [Example 280] = > 75%
CCN(Cc1ccc(C)cc1)C(=O)n1cc(C)cn1 [Example 257] = < 25%
O=C(N1CCN(Cc2cccc(N3CCCC3)c2)CC1)n1cc(C(F)(F)F)cn1 [Example 273] = > 75%
CCN(Cc1cccc(Cl)c1)C(=O)n1cc(C)cn1 [Example 245] = < 25%
CCN(Cc1cccc(N2CCOCC2)c1)C(=O)n1cc(C)cn1 [Example 262] = < 25%
CCN(Cc1ccc(OC)cc1)C(=O)n1cc(C(F)(F)F)cn1 [Example 259] = > 75%
CCN(Cc1cccc(C)c1)C(=O)n1cc(C(F)(F)F)cn1 [Example 247] = > 75%
O=C(N1CCN(Cc2cccc(F)c2)CC1)n1cc(C(F)(F)F)cn1 [Example 269] = > 75%
N#Cc1cnn(C(=O)N2CCCN(Cc3cccc(OCc4ccccc4)c3)CC2)c1 [Example 300] = > 75%
CCN(Cc1cccc(C)c1)C(=O)n1cc(C#N)cn1 [Example 246] = > 75%
O=C(N1CCN(Cc2ccccc2N2CCOCC2)CC1)n1cc(C(F)(F)F)cn1 [Example 281] = > 75%
CCN(Cc1ccc(N2CCOCC2)cc1)C(=O)n1cc(C)cn1 [Example 265] = < 25%
COc1cccc(CN2CCN(C(=O)n3cc(C(F)(F)F)cn3)CC2)c1 [Example 271] = > 75%
Cc1cnn(C(=O)N2CCCN(Cc3ccc(OCc4ccccc4)cc3)CC2)c1 [Example 302] = < 25%
N#Cc1cnn(C(=O)N2CCN(Cc3cccc(Oc4ccccc4)c3)CC2)c1 [Example 295] = > 75%
COc1ccccc1CN1CCN(C(=O)n2cc(C(F)(F)F)cn2)CC1 [Example 278] = > 75%
N#Cc1cnn(C(=O)N2CCCN(Cc3ccc(Oc4ccccc4)cc3)CC2)c1 [Example 301] = > 75%
CCN(Cc1ccc(N2CCOCC2)cc1)C(=O)n1cc(C#N)cn1 [Example 263] = > 75%
N#Cc1cnn(C(=O)N2CCN(Cc3ccc(C(=O)N4CCCCC4)cc3Cl)CC2)c1 [Example 282] = > 75%
CCN(Cc1ccc(C)cc1)C(=O)n1cc(C(F)(F)F)cn1 [Example 256] = > 75%
NC(=O)c1cnn(C(=O)N2CCN(Cc3cccc(Oc4ccccc4)c3)CC2)c1 [Example 286] = > 75%
COc1cc(-c2ccccc2)ccc1CN1CCN(C(=O)n2cc(C(=O)N3CCCC3)cn2)CC1 [Example 290] = > 75%
Cc1ccccc1CN1CCN(C(=O)n2cc(C(F)(F)F)cn2)CC1 [Example 277] = > 75%
CCN(Cc1ccc(OC)cc1)C(=O)n1cc(C#N)cn1 [Example 258] = > 75%
